Listed below: protein stability index values for each entry.
B1: KRT13 (parent)
chain: YGGGLGGGFGGGFAGGFVDFGACD

Variants of: B1
method: protein stability index of a GFP-peptide fusion (GPS, HEK-293T) (PSI 1-6); higher = more stable;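 further: lentivirally expressed fusions sorted by FACS into six bins by GFP to DsRed ratio, PSI derived from sequencing read proportions per bin multiplied by bin number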
condition summary: c terminus: a fixed tail appended
API doc: respond with a numeric literal and nothing else, no unit.

Consider the reported protein stability index for these variants:
>>> result_number("L5S")
1.36
>>> result_number("F17A")
2.07
>>> result_number("G15A")
1.2
>>> result_number("A14W")
2.15
>>> result_number("G6V")
2.12

Task item: Param item = `A22H` ; retrieve measured protein stability index.
Reply: 1.54

Task item: And the next one, `G10Q` ?
Reply: 2.21

Task item: And the next one, `D24E` ?
Reply: 2.57

Task item: And the next one, `V18N` ?
Reply: 1.5

Task item: And the next one, `G16W` ?
Reply: 3.21

Task item: And the next one, `G21C` ?
Reply: 1

Task item: And the next one, `D24R` ?
Reply: 2.16

Task item: And the next one, `V18A` ?
Reply: 2.34

Task item: And the next one, `L5Y` ?
Reply: 2.79

Task item: And the next one, `D24P` ?
Reply: 1.85
